TESTED_SYSTEM: Cholinesterase (Equus caballus) (UniProt P81908)
Sequence (P81908 whole entry): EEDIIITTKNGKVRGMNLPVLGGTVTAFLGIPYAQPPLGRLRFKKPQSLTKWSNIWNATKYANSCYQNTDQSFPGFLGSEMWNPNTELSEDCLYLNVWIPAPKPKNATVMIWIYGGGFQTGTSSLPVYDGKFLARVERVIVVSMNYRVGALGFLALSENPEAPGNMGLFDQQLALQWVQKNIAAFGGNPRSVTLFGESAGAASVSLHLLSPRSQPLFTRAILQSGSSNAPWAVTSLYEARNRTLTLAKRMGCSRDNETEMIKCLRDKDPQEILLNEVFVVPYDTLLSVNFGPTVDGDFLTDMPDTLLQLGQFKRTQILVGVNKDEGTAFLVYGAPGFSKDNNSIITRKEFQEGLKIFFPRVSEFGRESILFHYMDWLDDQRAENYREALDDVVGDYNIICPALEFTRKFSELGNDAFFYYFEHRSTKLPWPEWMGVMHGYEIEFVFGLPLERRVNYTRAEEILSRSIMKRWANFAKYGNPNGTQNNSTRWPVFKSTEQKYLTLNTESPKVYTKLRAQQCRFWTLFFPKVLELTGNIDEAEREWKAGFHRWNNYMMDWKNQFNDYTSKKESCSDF
TEST_METHOD_NOTES: Inhibition of equine serum BCHE at 0.5 mM using butyrylthiocholine iodide as substrate preincubated for 10 mins followed by substrate addition measured after 30 mins by Ellman's method relative to control
Listed next: entries and their corresponding inhibition.
PARAMETER: inhibition (%)

COc1ccc(C(=O)NNC(=O)c2ccc3c(c2)COC3(CCCN(C)C)c2ccc(F)cc2)cc1 (stereo not drawn) :: 72.2
CN(C)CCCC1(c2ccc(F)cc2)OCc2cc(C(=O)NNC(=O)c3cccc(F)c3)ccc21 (stereo not drawn) :: 73.3
CN(C)CCCC1(c2ccc(F)cc2)OCc2cc(C(=O)NNC(=O)c3ccccc3O)ccc21 (stereo not drawn) :: 85.7
CN(C)CCCC1(c2ccc(F)cc2)OCc2cc(C(=O)NNC(=O)c3cccc(I)c3)ccc21 (stereo not drawn) :: 85.4
CN(C)CCCC1(c2ccc(F)cc2)OCc2cc(C(=O)NNC(=O)c3ccc(F)cc3)ccc21 (stereo not drawn) :: 74.6
COc1cc(C(=O)NNC(=O)c2ccc3c(c2)COC3(CCCN(C)C)c2ccc(F)cc2)ccc1O (stereo not drawn) :: 84.1
CN(C)CCCC1(c2ccc(F)cc2)OCc2cc(C(=O)NNC(=O)c3cccc(Cl)c3)ccc21 (stereo not drawn) :: 84
CN(C)CCCC1(c2ccc(F)cc2)OCc2cc(C(=O)NNC(=O)c3cccc(Br)c3)ccc21 (stereo not drawn) :: 88.8
CN(C)CCCC1(c2ccc(F)cc2)OCc2cc(C(=O)NNC(=O)c3ccccc3Cl)ccc21 (stereo not drawn) :: 85.4
CN(C)CCCC1(c2ccc(F)cc2)OCc2cc(C(=O)NNC(=O)c3ccc(Br)cc3)ccc21 (stereo not drawn) :: 76.2
Cc1ccc(C(=O)NNC(=O)c2ccc3c(c2)COC3(CCCN(C)C)c2ccc(F)cc2)cc1 (stereo not drawn) :: 76.6
CN(C)CCCC1(c2ccc(F)cc2)OCc2cc(C(=O)NNC(=O)c3ccccc3F)ccc21 (stereo not drawn) :: 85.5
CN(C)CCCC1(c2ccc(F)cc2)OCc2cc(C(=O)NNC(=O)c3ccc([N+](=O)[O-])cc3)ccc21 (stereo not drawn) :: 74.6
CN(C)CCCC1(c2ccc(F)cc2)OCc2cc(C(=O)NNC(=O)c3ccccc3)ccc21 (stereo not drawn) :: 81.5
CN(C)CCCC1(c2ccc(F)cc2)OCc2cc(C(=O)NNC(=O)c3ccccc3[N+](=O)[O-])ccc21 (stereo not drawn) :: 84.1
Cc1ccccc1C(=O)NNC(=O)c1ccc2c(c1)COC2(CCCN(C)C)c1ccc(F)cc1 (stereo not drawn) :: 72.4
COc1ccccc1C(=O)NNC(=O)c1ccc2c(c1)COC2(CCCN(C)C)c1ccc(F)cc1 (stereo not drawn) :: 88.8
CN(C)CCCC1(c2ccc(F)cc2)OCc2cc(C(=O)NNC(=O)c3ccccc3N)ccc21 (stereo not drawn) :: 84.4
CN(C)CCCC1(c2ccc(F)cc2)OCc2cc(C(=O)NNC(=O)c3ccc(I)cc3)ccc21 (stereo not drawn) :: 85.5
CN(C)CCCC1(c2ccc(F)cc2)OCc2cc(C(=O)NNC(=O)c3ccccc3Br)ccc21 (stereo not drawn) :: 84.1
CN(C)CCCC1(c2ccc(F)cc2)OCc2cc(C(=O)NNC(=O)c3ccc(N)cc3)ccc21 (stereo not drawn) :: 85.5
CN(C)CCCC1(c2ccc(F)cc2)OCc2cc(C(=O)NNC(=O)c3ccccc3I)ccc21 (stereo not drawn) :: 82.6
CNC(=O)Oc1ccc2c(c1)[C@]1(C)CCN(C)[C@@H]1N2C :: 82.8
Cc1cccc(C(=O)NNC(=O)c2ccc3c(c2)COC3(CCCN(C)C)c2ccc(F)cc2)c1 (stereo not drawn) :: 85.7
CN(C)CCCC1(c2ccc(F)cc2)OCc2cc(C(=O)NNC(=O)c3ccc(Cl)cc3)ccc21 (stereo not drawn) :: 78.4
CN(C)CCCC1(c2ccc(F)cc2)OCc2cc(C(=O)NNC(=O)c3cccc(O)c3)ccc21 (stereo not drawn) :: 88.2
CN(C)CCCC1(c2ccc(F)cc2)OCc2cc(C(=O)NNC(=O)c3cccc([N+](=O)[O-])c3)ccc21 (stereo not drawn) :: 73.3
CN(C)CCCC1(c2ccc(F)cc2)OCc2cc(C(=O)NNC(=O)c3ccc(O)cc3)ccc21 (stereo not drawn) :: 73.2
